# Lookup of reported pKd keyed by entry
Target: Heme oxygenase (Pseudomonas aeruginosa, UniProt O69002)
Experiment: Binding affinity to Pseudomonas aeruginosa HemO by intrinsic fluorescence quenching assay
pKd: −log10 of the molar value.

{"smi": "O=C(O)CCN1C(=O)/C(=C/c2cccc(Nc3ccccc3)c2)SC1=S", "pKd": 5.92}
{"smi": "O=C1/C(=C/c2ccc(O)c(O)c2)SC(=S)N1CCc1nnn[nH]1", "pKd": 4.35}
{"smi": "COc1cccc(/C=C2\\SC(=S)N(CCC(=O)O)C2=O)c1", "pKd": 4.60}
{"smi": "O=C(O)CCN1C(=O)/C(=C/c2ccc(Oc3ccccc3)cc2)SC1=S", "pKd": 5.19}
{"smi": "O=C(O)CCN1C(=O)/C(=C/c2c[nH]c3ccccc23)SC1=S", "pKd": 5.19}
{"smi": "O=C1/C(=C/c2ccccn2)SC(=S)N1CCc1nnn[nH]1", "pKd": 4.57}
{"smi": "O=C(O)CCN1C(=O)/C(=C/c2ccc(O)c(O)c2)SC1=S", "pKd": 4.24}
{"smi": "COc1ccc(/C=C2\\SC(=S)N(CCC(=O)O)C2=O)cc1", "pKd": 4.64}
{"smi": "O=C(O)CCN1C(=O)/C(=C/c2ccccn2)SC1=S", "pKd": 4.29}
{"smi": "COC(=O)c1ccc(-c2ccc(C=C3SC(=S)N(CCC(=O)O)C3=O)o2)cc1", "pKd": 4.55}
{"smi": "N#Cc1cccc(-c2ccc(C=C3SC(=S)N(CCC(=O)O)C3=O)o2)c1", "pKd": 4.89}

* * *

# Lookup of reported Kd keyed by entry
Target: Heme oxygenase (Pseudomonas aeruginosa, UniProt O69002)
Sequence (O69002 whole entry): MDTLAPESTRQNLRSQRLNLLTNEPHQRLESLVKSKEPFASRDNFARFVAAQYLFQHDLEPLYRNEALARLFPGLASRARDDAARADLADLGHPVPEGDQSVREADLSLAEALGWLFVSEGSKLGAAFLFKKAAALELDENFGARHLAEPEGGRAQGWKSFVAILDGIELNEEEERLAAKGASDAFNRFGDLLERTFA
Assay: Binding affinity to Pseudomonas aeruginosa HemO by intrinsic fluorescence quenching assay

{"smi": "O=C(O)CCN1C(=O)/C(=C/c2ccco2)SC1=S", "Kd (µM)": 38}
{"smi": "O=C1Nc2ccc(Cl)cc2/C1=C\\c1ccc(-c2ccccc2)cc1", "Kd (µM)": 5.2}
{"smi": "NCCN1C(=O)/C(=C/c2ccc(-c3ccccc3)cc2)SC1=S", "Kd (µM)": 43}
{"smi": "COC(=O)c1cc(-c2ccc(C=C3SC(=S)N(CCC(=O)O)C3=O)o2)ccc1N", "Kd (µM)": 6.5}
{"smi": "O=C(O)CCN1C(=O)C(=Cc2ccc(-c3ccccc3)cc2)SC1=S", "Kd (µM)": 3.3}
{"smi": "O=C1NC(=S)SC1=Cc1ccc(-c2ccccc2)cc1", "Kd (µM)": 2.3}
{"smi": "O=C(O)CCN1C(=O)C(=Cc2ccc(-c3cccc(O)c3)o2)SC1=S", "Kd (µM)": 1.1}
{"smi": "O=C(O)CCN1C(=O)C(=Cc2ccc3ccccc3c2)SC1=S", "Kd (µM)": 3.9}
{"smi": "CN(C)CCN1C(=O)C(=Cc2ccc(-c3ccccc3)cc2)SC1=S", "Kd (µM)": 18}
{"smi": "O=C(O)CCN1C(=O)/C(=C/c2ccc(F)cc2)SC1=S", "Kd (µM)": 44}
{"smi": "O=C(O)CCN1C(=O)/C(=C/c2ccc(Cl)cc2)SC1=S", "Kd (µM)": 15}
{"smi": "O=C(O)CCN1C(=O)/C(=C/c2cn(Cc3ccccc3)c3ccccc23)SC1=S", "Kd (µM)": 7.4}
{"smi": "COC(=O)c1cccc(-c2ccc(C=C3SC(=S)N(CCC(=O)O)C3=O)o2)c1", "Kd (µM)": 7.6}

* * *

Target: Heme oxygenase (Pseudomonas aeruginosa, UniProt O69002)
Assay: Binding affinity to Pseudomonas aeruginosa HemO by intrinsic fluorescence quenching assay
pKd: −log10 of the molar value.
# Lookup of reported pKd keyed by entry

{"smi": "O=C(O)CCN1C(=O)C(=Cc2cccc3ccccc23)SC1=S", "pKd": 4.89}
{"smi": "O=C(O)CCN1C(=O)C(=Cc2cccc(-c3ccccc3)c2)SC1=S", "pKd": 4.70}
{"smi": "O=C1/C(=C/c2ccco2)SC(=S)N1CCc1nn[nH]n1", "pKd": 4.59}
{"smi": "O=C(O)CCN1C(=O)/C(=C/c2ccc(Cc3ccccc3)cc2)SC1=S", "pKd": 5.15}
{"smi": "CC(C)c1ccc(/C=C2\\SC(=S)N(CCC(=O)O)C2=O)cc1", "pKd": 5.00}
{"smi": "O=C(O)CCN1C(=O)/C(=C/c2ccc(Cl)c(Cl)c2)SC1=S", "pKd": 4.85}
